Measured values drawn from the supplement of paper PMC10307832 for this set.

Tested on: NCI-H1792
Assay: relative viability (nuclei count vs DMSO), 5 days (fraction); higher = more cells survive
Conditions: first compound 20 µM

{"Compound": "Cc1csc(=NC2CCCCC2)n1/N=C/c1ccc(O)c(O)c1O [MIM1] + NC(=O)Nc1cc(-c2cccc(F)c2)sc1C(=O)N[C@H]1CCCNC1 [AZD7762] (partner 0.2 µM)", "relative viability": 0.858}
{"Compound": "Cc1csc(=NC2CCCCC2)n1/N=C/c1ccc(O)c(O)c1O [MIM1] + Cc1nc(Nc2ncc(C(=O)Nc3c(C)cccc3Cl)s2)cc(N2CCN(CCO)CC2)n1 [Dasatinib] (partner 0.075 µM)", "relative viability": 0.808}
{"Compound": "Cc1csc(=NC2CCCCC2)n1/N=C/c1ccc(O)c(O)c1O [MIM1] + CS(=O)(=O)CCNCc1ccc(-c2ccc3ncnc(Nc4ccc(OCc5cccc(F)c5)c(Cl)c4)c3c2)o1 [Lapatinib] (partner 2 µM)", "relative viability": 0.294}

---

Catalogue of relative viability readings, one per entry.
Tested on: NCI-H2228
Assay: relative viability (nuclei count vs DMSO), 5 days (fraction); higher = more cells survive
Settings: first compound 2 µM

{"Compound": "CN1CCN(CCOc2cc(OC3CCOCC3)c3c(Nc4c(Cl)ccc5c4OCO5)ncnc3c2)CC1 [Saracatinib] + CC(=O)c1c(C)c2cnc(Nc3ccc(N4CCNCC4)cn3)nc2n(C2CCCC2)c1=O [Palbociclib] (partner 0.5 µM)", "System Name": "NCI-H2228", "relative viability": 0.557}
{"Compound": "Cc1csc(=NC2CCCCC2)n1/N=C/c1ccc(O)c(O)c1O [MIM1] + N=C(N)NC(=N)NCCc1ccccc1 [Phenformin] (partner 250 µM)", "System Name": "NCI-H2228", "relative viability": 0.332}
{"Compound": "Cc1csc(=NC2CCCCC2)n1/N=C/c1ccc(O)c(O)c1O [MIM1] + Cc1nc(Nc2ncc(C(=O)Nc3c(C)cccc3Cl)s2)cc(N2CCN(CCO)CC2)n1 [Dasatinib] (partner 0.075 µM)", "System Name": "NCI-H2228", "relative viability": 0.66}
{"Compound": "Cc1csc(=NC2CCCCC2)n1/N=C/c1ccc(O)c(O)c1O [MIM1] + CC(C)C[C@H](NC(=O)[C@H](Cc1ccccc1)NC(=O)c1cnccn1)B(O)O [Bortezomib] (partner 0.002 µM)", "System Name": "NCI-H2228", "relative viability": 1.09}
{"Compound": "CN1CCN(CCOc2cc(OC3CCOCC3)c3c(Nc4c(Cl)ccc5c4OCO5)ncnc3c2)CC1 [Saracatinib] + Cc1nc(NC(=O)N2CCC[C@H]2C(N)=O)sc1-c1ccnc(C(C)(C)C(F)(F)F)c1 [Alpelisib] (partner 2 µM)", "System Name": "NCI-H2228", "relative viability": 0.365}

---

System: NCI-H23
Experiment: relative viability (nuclei count vs DMSO), 5 days (fraction); higher = more cells survive
Conditions: first compound 8 µM
This section presents molecules with their documented relative viability values.

{"Molecule": "Nc1cccc2c1CN(C1CCC(=O)NC1=O)C2=O (centres undefined) [Lenalidomide] + Cc1cc(Nc2cc(N3CCN(C)CC3)nc(Sc3ccc(NC(=O)C4CC4)cc3)n2)n[nH]1 [Tozasertib] (partner 0.1 µM)", "System Name": "NCI-H23", "relative viability": 0.405}
{"Molecule": "Nc1cccc2c1CN(C1CCC(=O)NC1=O)C2=O (centres undefined) [Lenalidomide] + O=C(c1cc(Cc2n[nH]c(=O)c3ccccc23)ccc1F)N1CCN(C(=O)C2CC2)CC1 [Olaparib] (partner 8 µM)", "System Name": "NCI-H23", "relative viability": 0.367}
{"Molecule": "Nc1cccc2c1CN(C1CCC(=O)NC1=O)C2=O (centres undefined) [Lenalidomide] + C[C@]1(O)C[C@@H](c2nc(-c3ccc4ccc(-c5ccccc5)nc4c3)c3c(N)nccn32)C1 [Linsitinib] (partner 1 µM)", "System Name": "NCI-H23", "relative viability": 0.45}
{"Molecule": "Nc1cccc2c1CN(C1CCC(=O)NC1=O)C2=O (centres undefined) [Lenalidomide] + COc1cccc2cc(-c3nc([C@H]4CC[C@H](C(=O)O)CC4)n4ncnc(N)c34)[nH]c12 [OSI-027] (partner 0.5 µM)", "System Name": "NCI-H23", "relative viability": 0.502}

---

The compounds listed here are annotated with their relative viability.
Test system: LK-2
Assay: relative viability (nuclei count vs DMSO), 5 days (fraction); higher = more cells survive
Conditions: first compound 2.53 µM
Value Type: relative viability

{"Compound": "Nc1cccc2c1CN(C1CCC(=O)NC1=O)C2=O (stereo not drawn) [Lenalidomide] + COc1cccc2cc(-c3nc([C@H]4CC[C@H](C(=O)O)CC4)n4ncnc(N)c34)[nH]c12 [OSI-027] (partner 0.5 µM)", "Result": 0.191}
{"Compound": "Nc1cccc2c1CN(C1CCC(=O)NC1=O)C2=O (stereo not drawn) [Lenalidomide] + O=C(c1cc(Cc2n[nH]c(=O)c3ccccc23)ccc1F)N1CCN(C(=O)C2CC2)CC1 [Olaparib] (partner 8 µM)", "Result": 0.571}
{"Compound": "Nc1cccc2c1CN(C1CCC(=O)NC1=O)C2=O (stereo not drawn) [Lenalidomide] + NC(=O)Nc1cc(-c2cccc(F)c2)sc1C(=O)N[C@H]1CCCNC1 [AZD7762] (partner 0.2 µM)", "Result": 0.33}

---

Tested on: LC-2-ad
Assay: relative viability (nuclei count vs DMSO), 5 days (fraction); higher = more cells survive
Conditions: first compound 0.03162 µM
Measured relative viability, listed per entry.

{"Compound": "Cc1cn(-c2cc(NC(=O)c3ccc(C)c(Nc4nccc(-c5cccnc5)n4)c3)cc(C(F)(F)F)c2)cn1 [Nilotinib] + C[C@]1(O)C[C@@H](c2nc(-c3ccc4ccc(-c5ccccc5)nc4c3)c3c(N)nccn32)C1 [Linsitinib] (partner 1 µM)", "relative viability": 0.897}
{"Compound": "Cc1cn(-c2cc(NC(=O)c3ccc(C)c(Nc4nccc(-c5cccnc5)n4)c3)cc(C(F)(F)F)c2)cn1 [Nilotinib] + NC(=O)Nc1cc(-c2cccc(F)c2)sc1C(=O)N[C@H]1CCCNC1 [AZD7762] (partner 0.2 µM)", "relative viability": 0.748}

---

Here, each record is paired with measured relative viability data.
Tested on: NCI-H661
Assay: relative viability (nuclei count vs DMSO), 5 days (fraction); higher = more cells survive
Details: first compound 0.001 µM
Value Type: relative viability

{"Molecule": "Cc1cn(-c2cc(NC(=O)c3ccc(C)c(Nc4nccc(-c5cccnc5)n4)c3)cc(C(F)(F)F)c2)cn1 [Nilotinib] + Cc1nc(Nc2ncc(C(=O)Nc3c(C)cccc3Cl)s2)cc(N2CCN(CCO)CC2)n1 [Dasatinib] (partner 0.075 µM)", "Numeric Value": 0.923}
{"Molecule": "Cc1cn(-c2cc(NC(=O)c3ccc(C)c(Nc4nccc(-c5cccnc5)n4)c3)cc(C(F)(F)F)c2)cn1 [Nilotinib] + N=C(N)NC(=N)NCCc1ccccc1 [Phenformin] (partner 250 µM)", "Numeric Value": 0.307}
{"Molecule": "Cc1cn(-c2cc(NC(=O)c3ccc(C)c(Nc4nccc(-c5cccnc5)n4)c3)cc(C(F)(F)F)c2)cn1 [Nilotinib] + COc1cccc2cc(-c3nc([C@H]4CC[C@H](C(=O)O)CC4)n4ncnc(N)c34)[nH]c12 [OSI-027] (partner 0.5 µM)", "Numeric Value": 0.672}
{"Molecule": "Cc1cn(-c2cc(NC(=O)c3ccc(C)c(Nc4nccc(-c5cccnc5)n4)c3)cc(C(F)(F)F)c2)cn1 [Nilotinib] + CS(=O)(=O)N1CCN(Cc2cc3nc(-c4cccc5[nH]ncc45)nc(N4CCOCC4)c3s2)CC1 [Pictilisib] (partner 1 µM)", "Numeric Value": 0.396}
{"Molecule": "Cc1cn(-c2cc(NC(=O)c3ccc(C)c(Nc4nccc(-c5cccnc5)n4)c3)cc(C(F)(F)F)c2)cn1 [Nilotinib] + Nc1ncn([C@H]2C[C@H](O)[C@@H](CO)O2)c(=O)n1 [Decitabine] (partner 2 µM)", "Numeric Value": 0.554}

---

Tested on: NCI-H1993
Assay: relative viability (nuclei count vs DMSO), 5 days (fraction); higher = more cells survive
Conditions: first compound 0.06325 µM
Each item that follows carries a reported relative viability.

{"Compound": "CCNC(=O)c1noc(-c2cc(C(C)C)c(O)cc2O)c1-c1ccc(CN2CCOCC2)cc1 [Luminespib] + CC(=O)Nc1cccc(-n2c(=O)n(C3CC3)c(=O)c3c(Nc4ccc(I)cc4F)n(C)c(=O)c(C)c32)c1 [Trametinib] (partner 0.02 µM)", "relative viability": 0.461}
{"Compound": "CCNC(=O)c1noc(-c2cc(C(C)C)c(O)cc2O)c1-c1ccc(CN2CCOCC2)cc1 [Luminespib] + NC(=O)Nc1cc(-c2cccc(F)c2)sc1C(=O)N[C@H]1CCCNC1 [AZD7762] (partner 0.2 µM)", "relative viability": 0.247}
{"Compound": "CCNC(=O)c1noc(-c2cc(C(C)C)c(O)cc2O)c1-c1ccc(CN2CCOCC2)cc1 [Luminespib] + O=C(c1cc(Cc2n[nH]c(=O)c3ccccc23)ccc1F)N1CCN(C(=O)C2CC2)CC1 [Olaparib] (partner 8 µM)", "relative viability": 0.903}
{"Compound": "CCNC(=O)c1noc(-c2cc(C(C)C)c(O)cc2O)c1-c1ccc(CN2CCOCC2)cc1 [Luminespib] + O=C(CCCCCCC(=O)Nc1ccccc1)NO [Vorinostat] (partner 1 µM)", "relative viability": 0.246}
